# credit: patent US5047397A

Tgt: specific ANP receptor sites on BASM or BAE cells (Bos taurus, UniProt P10730)
Construct: specific receptor sites on BASM or BAE cells; endogenous in cells; host or cells: cultured BASM and BAE cells
Sequence (P10730 42-537): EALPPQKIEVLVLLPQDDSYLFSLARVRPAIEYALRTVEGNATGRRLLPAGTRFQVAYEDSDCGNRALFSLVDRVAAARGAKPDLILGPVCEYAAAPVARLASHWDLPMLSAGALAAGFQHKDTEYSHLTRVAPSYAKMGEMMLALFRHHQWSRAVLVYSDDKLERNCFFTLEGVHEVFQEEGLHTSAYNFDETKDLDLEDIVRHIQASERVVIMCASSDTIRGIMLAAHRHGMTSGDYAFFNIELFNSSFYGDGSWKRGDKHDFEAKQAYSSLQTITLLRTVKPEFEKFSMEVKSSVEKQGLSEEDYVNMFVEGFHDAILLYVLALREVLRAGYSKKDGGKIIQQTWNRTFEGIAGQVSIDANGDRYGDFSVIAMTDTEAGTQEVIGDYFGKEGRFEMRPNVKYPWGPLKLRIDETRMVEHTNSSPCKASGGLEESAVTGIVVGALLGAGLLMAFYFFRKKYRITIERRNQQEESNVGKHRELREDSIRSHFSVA
Experimental details: Competitive displacement receptor binding of (125I)-rANP(126-150) on cultured cells
Design: species or system bovine
Condition summary: concentration of unlabeled peptide displacing 50% of maximal binding of 0.5 nM (125I)-rANP(126-150); BASM or BAE cells
Where a SMILES comes first, the peptide text is derived from it. [ ]: non-standard residue; d: D form. The star is where a group is joined. Acetyl(2-naphthyloxy) = O=C(COc1ccc2ccccc2c1)*; Acetyl(2-naphthyl) = O=C(Cc1ccc2ccccc2c1)*; Fmoc = O=C(OCC1c2ccccc2-c2ccccc21)*; Phg = N[C@H](C(=O)O)c1ccccc1; Inp = O=C(O)C1CCNCC1; Ava = NCCCCC(=O)O
Metric name: Ki(app)
Could you kindly put the unit after your number?

| Compound | Ki(app) |
| --- | --- |
| CC[C@H](C)[C@H](NC(=O)[C@H](CCCNC(=N)N)NC(=O)[C@H](CC(=O)O)NC(=O)[C@@H](NC(=O)[C@H](CCCNC(=N)N)NC(=O)C1CCN(C(=O)COc2ccc3ccccc3c2)CC1)[C@@H](C)CC)C(N)=O [AP793] ({Acetyl(2-naphthyloxy)-Inp}-RIDRI-NH2) | 76.8 nM |
| CC[C@H](C)[C@H](NC(=O)[C@H](CCCNC(=N)N)NC(=O)[C@H](CC(=O)O)NC(=O)[C@@H](NC(=O)[C@H](CCCNC(=N)N)NC(=O)CNC(=O)CNC(=O)Cc1ccc2ccccc2c1)c1ccccc1)C(N)=O [AP575, (2-NA)--G--G--R--Phg--D--R--I--NH2] ({Acetyl(2-naphthyl)}-GGR[Phg]DRI-NH2) | 194.0 nM |
| CC[C@H](C)[C@H](NC(=O)[C@H](CCCNC(=N)N)NC(=O)[C@H](CC(=O)O)NC(=O)[C@@H](NC(=O)[C@H](CCCNC(=N)N)NC(=O)CCCCNC(=O)OCC1c2ccccc2-c2ccccc21)[C@@H](C)CC)C(N)=O [AP323, (FMOC)--NH(CH2)4 CO--R--I--D--R--I--NH2] ({Fmoc-Ava}-RIDRI-NH2) | 162.6 nM |
| CC[C@H](C)[C@H](NC(=O)[C@H](CCCNC(=N)N)NC(=O)[C@H](CC(=O)O)NC(=O)[C@@H](NC(=O)[C@H](CCCNC(=N)N)NC(=O)CNC(=O)[C@@H](CO)NC(=O)Cc1ccc2ccccc2c1)[C@@H](C)CC)C(N)=O [AP330, (2-NA)--S^ --G--R--I--D--R--I--NH2] ({Acetyl(2-naphthyl)}-[dS]GRIDRI-NH2) | 16.4 nM |

// moving on: another record for Ki(app)
IN: Returns the measured Ki(app) for the input compound. Input: CCNC(=O)CNC(=O)[C@@H](NC(=O)[C@H](CCCNC(=N)N)NC(=O)[C@H](CC(=O)O)NC(=O)[C@@H](NC(=O)[C@H](CCCNC(=N)N)NC(=O)CCCCNC(=O)Cc1ccc2ccccc2c1)[C@@H](C)CC)[C@@H](C)CC [AP530] ({Acetyl(2-naphthyl)-Ava}-RIDRIG-NHEt)
OUT: 50.5 nM
